Target: Adenosine receptor A2b (Homo sapiens, UniProt P29275)
Sequence (P29275 whole entry): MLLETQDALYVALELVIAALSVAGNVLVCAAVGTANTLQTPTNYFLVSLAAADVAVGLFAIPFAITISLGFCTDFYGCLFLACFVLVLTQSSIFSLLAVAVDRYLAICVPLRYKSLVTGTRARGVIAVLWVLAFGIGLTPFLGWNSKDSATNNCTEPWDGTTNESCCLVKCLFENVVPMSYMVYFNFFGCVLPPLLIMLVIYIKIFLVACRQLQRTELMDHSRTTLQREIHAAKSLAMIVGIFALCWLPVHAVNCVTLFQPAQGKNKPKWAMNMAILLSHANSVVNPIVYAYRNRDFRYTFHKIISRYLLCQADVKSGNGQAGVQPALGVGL
Assay: Antagonist activity at human adenosine A2B receptor expressed in CHO cells assessed as inhibition of NECA-induced adenylyl cyclase activity
pKi: −log10 of the molar value.

[
  {
    "compound": "CCOC(=O)c1nc(NC(=O)Cc2ccccc2)nc2nn(CCc3ccccc3)cc12",
    "target": "Adenosine receptor A2b (Homo sapiens, UniProt P29275)",
    "pKi": "< 5.00"
  },
  {
    "compound": "CCOC(=O)c1nc(N(C(=O)c2ccccc2)C(=O)c2ccccc2)nc2nn(CCc3ccccc3)cc12",
    "target": "Adenosine receptor A2b (Homo sapiens, UniProt P29275)",
    "pKi": "< 4.70"
  },
  {
    "compound": "CCOC(=O)c1nc(NC(=O)c2ccc(Cl)c(Cl)c2)nc2nn(CCc3ccccc3)cc12",
    "target": "Adenosine receptor A2b (Homo sapiens, UniProt P29275)",
    "pKi": "< 4.70"
  },
  {
    "compound": "CCOC(=O)c1nc(NC(=O)c2ccc(C)cc2)nc2nn(CCc3ccccc3)cc12",
    "target": "Adenosine receptor A2b (Homo sapiens, UniProt P29275)",
    "pKi": "< 4.70"
  },
  {
    "compound": "CCOC(=O)c1nc(NC(=O)c2ccc(C(F)(F)F)cc2)nc2nn(CCc3ccccc3)cc12",
    "target": "Adenosine receptor A2b (Homo sapiens, UniProt P29275)",
    "pKi": "< 4.70"
  },
  {
    "compound": "NC(=O)c1nc(N)nc2nn(CCc3ccccc3)cc12",
    "target": "Adenosine receptor A2b (Homo sapiens, UniProt P29275)",
    "pKi": "< 4.70"
  },
  {
    "compound": "CCOC(=O)c1nc(N)nc2nn(C)cc12",
    "target": "Adenosine receptor A2b (Homo sapiens, UniProt P29275)",
    "pKi": "< 4.70"
  },
  {
    "compound": "CCOC(=O)c1nc(NC(=O)Cc2ccccc2)nc2nn(C(C)C)cc12",
    "target": "Adenosine receptor A2b (Homo sapiens, UniProt P29275)",
    "pKi": "< 5.00"
  },
  {
    "compound": "CCOC(=O)c1nc(NC(=O)Cc2ccccc2)nc2nn(C)cc12",
    "target": "Adenosine receptor A2b (Homo sapiens, UniProt P29275)",
    "pKi": "< 4.70"
  },
  {
    "compound": "CCOC(=O)c1nc(NC(=O)c2ccc(C)cc2)nc2nn(C)cc12",
    "target": "Adenosine receptor A2b (Homo sapiens, UniProt P29275)",
    "pKi": "< 4.70"
  }
]

====

Species: Homo sapiens
Assay: Selectivity ratio of Ki for human adenosine A2A receptor to Ki for human adenosine A3 receptor
Below, each entry is listed with its recorded Ratio Ki.

[
  {
    "compound": "CCOC(=O)c1nc(NC(=O)c2ccccc2)nc2nn(C(C)C)cc12",
    "resultOperator": "=",
    "Ratio Ki": 0.4
  },
  {
    "compound": "CCOC(=O)c1nc(NC(=O)c2ccc(C)cc2)nc2nn(C)cc12",
    "resultOperator": "=",
    "Ratio Ki": 0.12
  },
  {
    "compound": "CCOC(=O)c1nc(N)nc2nn(CC(C)(C)C)cc12",
    "resultOperator": "=",
    "Ratio Ki": 0.48
  },
  {
    "compound": "CCOC(=O)c1nc(NC(=O)c2ccc(F)cc2)nc2nn(C)cc12",
    "resultOperator": "<",
    "Ratio Ki": 0.14
  },
  {
    "compound": "CCOC(=O)c1nc(N)nc2nn(CCc3ccccc3)cc12",
    "resultOperator": "=",
    "Ratio Ki": 0.26
  },
  {
    "compound": "CCOC(=O)c1nc(NC(=O)c2ccc(F)cc2)nc2nn(C(C)C)cc12",
    "resultOperator": "=",
    "Ratio Ki": 0.5
  },
  {
    "compound": "CCOC(=O)c1nc(NC(=O)c2ccccc2)nc2nn(CCc3ccccc3)cc12",
    "resultOperator": "=",
    "Ratio Ki": 0.3
  },
  {
    "compound": "NC(=O)c1nc(N)nc2nn(CCc3ccccc3)cc12",
    "resultOperator": "=",
    "Ratio Ki": 0.47
  },
  {
    "compound": "CCOC(=O)c1nc(NC(=O)c2ccc(Br)cc2)nc2nn(CCc3ccccc3)cc12",
    "resultOperator": "=",
    "Ratio Ki": 1.2
  },
  {
    "compound": "CCOC(=O)c1nc(NC(=O)c2ccc(Cl)c(Cl)c2)nc2nn(CCc3ccccc3)cc12",
    "resultOperator": ">",
    "Ratio Ki": 46
  },
  {
    "compound": "CCOC(=O)c1nc(N(C(=O)c2ccccc2)C(=O)c2ccccc2)nc2nn(C(C)C)cc12",
    "resultOperator": ">",
    "Ratio Ki": 18.5
  },
  {
    "compound": "CCOC(=O)c1nc(NC(=O)Cc2ccccc2)nc2nn(C(C)C)cc12",
    "resultOperator": "=",
    "Ratio Ki": 0.66
  },
  {
    "compound": "CC(C)(C)Cn1cc2c(C(N)=O)nc(N)nc2n1",
    "resultOperator": ">",
    "Ratio Ki": 4.1
  },
  {
    "compound": "CCOC(=O)c1nc(NC(=O)c2ccc(C)cc2)nc2nn(CCc3ccccc3)cc12",
    "resultOperator": "=",
    "Ratio Ki": 2
  },
  {
    "compound": "CCOC(=O)c1nc(NC(=O)c2ccc(F)cc2)nc2nn(CC(C)(C)C)cc12",
    "resultOperator": "=",
    "Ratio Ki": 1.3
  }
]
